Target: GRID2IP_1, A4D2P6
Sequence (A4D2P6 1-87): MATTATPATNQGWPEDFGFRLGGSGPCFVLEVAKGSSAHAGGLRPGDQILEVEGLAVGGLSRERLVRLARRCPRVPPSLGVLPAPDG
Test: holdup assay
Parameters: key: below the threshold = too weak to quantify, mostly under pKd 3.1 to 4
Details: plain residues with an end cap or a label only (N-terminal biotin on a linker: ttds)
TEST_READOUT: pKd

In the examples that follow, each entry is paired with its recorded pKd.
* RTRQRNETQV [HPV51-E6, P26554] | below the threshold
* DPRNTQTSQI [ABRAXAS2, Q15018] | below the threshold
* LCALPKVTTV [AGMAT, Q9BSE5] | below the threshold
* VNKVWDQSSV [CIT, O14578] | below the threshold
* SEKHFRETEV [HTLV1-TAX1, P03409] | below the threshold

Then this binder:
I have this binder here, SRRPRTETQV [HPV31-E6, P17386] , and I need its recorded pKd.
below the threshold
